Assay: Cmax in mouse at 10 mg/kg, po
Type: ADME, organism-based
Parameters: dose 10 mg/kg, route oral
Details: in vivo
parameter: Cmax (nM)
Return type: number; implicit unit nM.

For COc1ccc(S(=O)(=O)Nc2nc(-c3cccc([N+](=O)[O-])c3)c(CN3CCCCC3)s2)cc1OC , what is its reported Cmax?
1100

###

Assay: AUClast in C57BL/6N mouse treated with JM6 (containing <0.4% Ro-61-8048) at 50 mg/kg, po and Ro-61-8048 at 0.05 mg/kg, po drugs administered via gavage by LC-MS/MS analysis
Type: ADME, organism-based
Parameters: dose 50 mg/kg, time 0 - last, route oral
Settings: plasma
// values below are reported AUC(0-t)
Return type: number; implicit unit µM·h.

- COc1ccc(S(=O)(=O)Nc2nc(-c3cccc([N+](=O)[O-])c3)cs2)cc1OC: 7.9

For COc1ccc(S(=O)(=O)Nc2nc(-c3cccc([N+](=O)[O-])c3)c(CN3CCCCC3)s2)cc1OC , what is its reported AUC(0-t)?
9.6

###

Assay: AUC(infinity) in C57BL/6N mouse at 0.05 mg/kg, po administered via gavage by LC-MS/MS analysis
Type: ADME, organism-based
Set-up: time infinity, dose 0.05 mg/kg, route oral
Details: plasma
parameter: AUC(0-inf) (µM·h)
Return type: number; implicit unit µM·h.

For COc1ccc(S(=O)(=O)Nc2nc(-c3cccc([N+](=O)[O-])c3)cs2)cc1OC , what is its reported AUC(0-inf)?
4.5

###

Test: AUC(infinity) in C57BL/6N mouse treated with JM6 (containing <0.4% Ro-61-8048) at 9 mg/kg, po and Ro-61-8048 at 1 mg/kg, po drugs administered via gavage by LC-MS/MS analysis
Assay type: ADME, organism-based
Parameters: dose 9 mg/kg, time infinity, route oral
Conditions: plasma
parameter: AUC(0-inf) (µM·h)
Return type: number; implicit unit µM·h.

• COc1ccc(S(=O)(=O)Nc2nc(-c3cccc([N+](=O)[O-])c3)c(CN3CCCCC3)s2)cc1OC = 1.1

Moving on to the next compound.
For COc1ccc(S(=O)(=O)Nc2nc(-c3cccc([N+](=O)[O-])c3)cs2)cc1OC , what is its reported AUC(0-inf)?
110

###

Target: Kynurenine 3-monooxygenase (Rattus norvegicus)
Sequence (O88867 whole entry): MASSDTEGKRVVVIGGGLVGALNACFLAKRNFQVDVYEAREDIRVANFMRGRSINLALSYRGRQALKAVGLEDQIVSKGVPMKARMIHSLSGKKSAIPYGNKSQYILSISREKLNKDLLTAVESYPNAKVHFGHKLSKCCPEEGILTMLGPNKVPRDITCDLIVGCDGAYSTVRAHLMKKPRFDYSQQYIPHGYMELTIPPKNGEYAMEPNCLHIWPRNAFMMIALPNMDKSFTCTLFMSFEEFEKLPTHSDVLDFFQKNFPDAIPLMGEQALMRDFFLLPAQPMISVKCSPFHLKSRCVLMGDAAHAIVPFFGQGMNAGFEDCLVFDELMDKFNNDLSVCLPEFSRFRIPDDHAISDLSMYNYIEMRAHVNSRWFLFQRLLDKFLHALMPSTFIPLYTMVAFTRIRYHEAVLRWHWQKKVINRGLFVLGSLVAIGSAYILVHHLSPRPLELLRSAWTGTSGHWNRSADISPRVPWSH
Assay: Inhibition of Wistar rat KMO assessed as 3-hydroxykynurenine formation preincubated for 5 mins using 100 uM kynurenine as substrate by LC-MS/MS analysis in presence of 3 mg/ml plasma protein
parameter: IC50 (µM)
Return type: number; implicit unit µM.

For COc1ccc(S(=O)(=O)Nc2nc(-c3cccc([N+](=O)[O-])c3)cs2)cc1OC , what is its reported IC50?
8

###

Test: Half life in C57BL/6N mouse treated with JM6 (containing <0.4% Ro-61-8048) at 10 mg/kg, po and Ro-61-8048 at 0.05 mg/kg, po drugs administered via gavage by LC-MS/MS analysis
Format: ADME, organism-based
Conditions: in vivo
parameter: half-life (h)
Return type: number; implicit unit h.

• COc1ccc(S(=O)(=O)Nc2nc(-c3cccc([N+](=O)[O-])c3)cs2)cc1OC = 5.8

For COc1ccc(S(=O)(=O)Nc2nc(-c3cccc([N+](=O)[O-])c3)c(CN3CCCCC3)s2)cc1OC , what is its reported half-life?
0.7

###

Test: AUClast in C57BL/6N mouse treated with JM6 (containing <0.4% Ro-61-8048) at 25 mg/kg, po and Ro-61-8048 at 0.05 mg/kg, po drugs administered via gavage by LC-MS/MS analysis
Assay type: ADME, organism-based
Set-up: dose 25 mg/kg, route oral, time 0 - last
Conditions: plasma
parameter: AUC(0-t) (µM·h)
Return type: number; implicit unit µM·h.

• COc1ccc(S(=O)(=O)Nc2nc(-c3cccc([N+](=O)[O-])c3)c(CN3CCCCC3)s2)cc1OC = 4.8

Moving on to the next molecule.
For COc1ccc(S(=O)(=O)Nc2nc(-c3cccc([N+](=O)[O-])c3)cs2)cc1OC , what is its reported AUC(0-t)?
8.4
